READOUT_LABEL: melting point

[[record]]
compound = "CC(C)(CO)NC(=O)c1cccc(-c2cccc3cc(Cc4cc(F)cc(Cl)c4)sc23)c1"
readout_label = "melting point"
measured = "149 to 150 °C"

[[record]]
compound = "CS(=O)(=O)c1ccc(-c2ccccc2-c2ccc(F)cc2)cc1"
readout_label = "melting point"
measured = "178 to 179 °C"

[[record]]
compound = "CC(=O)c1cccc2cc3c(C(C)=O)cccc3cc12"
readout_label = "melting point"
measured = "185 to 205 °C"

[[record]]
compound = "Cn1c(C(F)(F)F)cc(=O)n(-c2ccc3snc(C4OCC(CS(C)(=O)=O)O4)c3c2)c1=O (stereo not given)"
readout_label = "melting point"
measured = "184 to 188 °C"

[[record]]
compound = "CCCCNc1nc(N)nc(N)n1"
readout_label = "melting point"
measured = "167 °C"

[[record]]
compound = "CON1CCC(CC2NC(=O)C(c3cc(C)ccc3C)=C2O)CC1 (stereo not given)"
readout_label = "melting point"
measured = "116 to 119 °C"

[[record]]
compound = "Cc1cc(=O)oc2nn(C(C)C)c(C)c12"
readout_label = "melting point"
measured = "164 to 166 °C"

[[record]]
compound = "O=C(NN=CC=Cc1ccc([N+](=O)[O-])o1)c1cn2ccsc2n1"
readout_label = "melting point"
measured = "332 °C"

[[record]]
compound = "Clc1ccc2c(c1)-c1[nH]ncc1CO2"
readout_label = "melting point"
measured = "175 to 176 °C"

[[record]]
compound = "CC(C)CCCOC1CCC2C3C(=O)C=C4CC(O[Si](C)(C)C(C)(C)C)CCC4(C)C3CCC12C (stereo not given)"
readout_label = "melting point"
measured = "143 to 145 °C"

